Tested on: Pseudoalteromonas lipolytica
Experiment: Anti-biofilm activity against Pseudoalteromonas lipolytica TC8 assessed as bacterial adhesion at 200 uM incubated for 15 hrs at 20 degC by Syto 61 dye based fluorimetric assay relative to control
Format: functional
RECORDED_ENDPOINT: Activity
Please append the unit to your numeric answer.

Oc1ccc(CCn2cc(CCCc3cn(CCc4ccc(O)c(Br)c4)nn3)nn2)cc1Br :: 63.5%
CN(C)CCOc1ccc(CCn2cc(-c3ccc(-c4cn(CCc5ccc(OCCN(C)C)c(Br)c5)nn4)cc3)nn2)cc1Br :: 14.6%
CN(C)CCCOc1ccc(CCn2cc(-c3cccc(-c4cn(CCc5ccc(OCCCN(C)C)c(Br)c5)nn4)c3)nn2)cc1Br :: 71.6%
COc1ccc(CCn2cc(CCCc3cn(CCc4ccc(OC)c(Br)c4)nn3)nn2)cc1Br :: 50%
CN(C)CCCOc1ccc(CCn2cc(CCCCCCc3cn(CCc4ccc(OCCCN(C)C)c(Br)c4)nn3)nn2)cc1Br :: 72.3%
CN(C)CCCOc1ccc(CCn2cc(-c3ccc(-c4cn(CCc5ccc(OCCCN(C)C)c(Br)c5)nn4)cc3)nn2)cc1Br :: 5.3%
COc1ccc(CCn2cc(COCc3cn(CCc4ccc(OC)c(Br)c4)nn3)nn2)cc1Br :: 42.8%
COc1ccc(CCn2cc(CCCCCCc3cn(CCc4ccc(OC)c(Br)c4)nn3)nn2)cc1Br :: 78.3%

Give Activity for this entry on Pseudoalteromonas lipolytica: CN(C)CCOc1ccc(CCn2cc(CCCc3cn(CCc4ccc(OCCN(C)C)c(Br)c4)nn3)nn2)cc1Br
57%
